- TARGET_SYSTEM: Pin1 (murine embryonic fibroblasts) (Mus musculus, UniProt Q9QUR7)
- Sequence (Q9QUR7 whole entry): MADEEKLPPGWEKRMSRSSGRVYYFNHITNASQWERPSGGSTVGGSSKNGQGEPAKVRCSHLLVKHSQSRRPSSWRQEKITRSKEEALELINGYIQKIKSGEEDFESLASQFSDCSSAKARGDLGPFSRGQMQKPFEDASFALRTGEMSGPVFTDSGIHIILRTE
- ASSAY_PROTOCOL: EGCG-Sepharose pull-down from MEF lysates
MEASURE: Ki (µM)
Answers are plain numbers, in µM.

Field Ki (Pin1 (murine embryonic fibroblasts) (Mus musculus, UniProt Q9QUR7)), entry O=C(O[C@@H]1Cc2c(O)cc(O)cc2O[C@@H]1c1cc(O)c(O)c(O)c1)c1cc(O)c(O)c(O)c1 [EGCG, epigallocatechin-3-gallate] : 45
